Molecular target: T1, Bcl-w
T1 chain: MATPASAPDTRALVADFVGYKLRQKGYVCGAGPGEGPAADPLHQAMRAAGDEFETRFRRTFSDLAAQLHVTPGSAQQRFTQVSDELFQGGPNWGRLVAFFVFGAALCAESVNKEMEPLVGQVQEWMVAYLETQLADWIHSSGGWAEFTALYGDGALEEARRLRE
Experiment: competition phage ELISA
Parameter measured: Fold/wt
Quick note: unit goes after the number.

Examples with their reported Fold/wt follow.
{"Binder": "QEDIIRNIARHLAQAGDSMDRSIPPG (M13 phage display: FLAG-26mer-GGGT-g3(249-406)) [Bid BH3 V15A, phage-displayed]", "Fold/wt": "3 fold"}
{"Binder": "QEDIIRNIARHLAQVGDSMDRSIPPE (M13 phage display: FLAG-26mer-GGGT-g3(249-406)) [Bid BH3 G26E, phage-displayed]", "Fold/wt": "1 fold"}
{"Binder": "QEDIIRNIARHAAQVGDSMDRSIPPG (M13 phage display: FLAG-26mer-GGGT-g3(249-406)) [Bid BH3 L12A, phage-displayed]", "Fold/wt": "25 fold"}
{"Binder": "QEDIIRNIARHLEQVGDSMDRSIPPG (M13 phage display: FLAG-26mer-GGGT-g3(249-406)) [Bid BH3 A13E, phage-displayed]", "Fold/wt": "11 fold"}
{"Binder": "QEDIIRNIARALAQVGDSMDRSIPPG (M13 phage display: FLAG-26mer-GGGT-g3(249-406)) [Bid BH3 H11A, phage-displayed]", "Fold/wt": "1 fold"}
{"Binder": "QEDIIRNIARHLAQVGDSMDRSIAPG (M13 phage display: FLAG-26mer-GGGT-g3(249-406)) [Bid BH3 P24A, phage-displayed]", "Fold/wt": "1 fold"}

[in] Record request: Fold/wt value, item QEDIIRNIARHLAQVGDAMDRSIPPG (M13 phage display: FLAG-26mer-GGGT-g3(249-406)) [Bid BH3 S18A, phage-displayed]
[out] 1 fold
